The measurements presented in this section are drawn from patent US20170355757A1.

Tgt: Cynomolgus monkey C5 (cynomolgus monkey, UniProt A0A2K5U1T1 19-1676)
Measurement Description: cell-based or functional assay
Quantity Name: Cyno AP % Max Inhibition, hemolysis assay, 5% serum (%)
All answers are understood in %, so give the number only.

INSERT INTO measurements (binder, value) VALUES
  ('H4H12161P (antibody, human IgG4, V domains shown, H4H: human IgG4 Fc with S108P hinge mutation) VH: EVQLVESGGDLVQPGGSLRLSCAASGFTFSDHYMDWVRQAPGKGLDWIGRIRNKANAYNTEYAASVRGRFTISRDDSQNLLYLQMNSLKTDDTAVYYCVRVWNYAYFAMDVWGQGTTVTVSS VL: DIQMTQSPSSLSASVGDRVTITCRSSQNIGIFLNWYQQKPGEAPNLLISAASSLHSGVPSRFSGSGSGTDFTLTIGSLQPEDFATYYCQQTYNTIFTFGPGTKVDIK', 98.4),
  ('H4H12169P (antibody, human IgG4, V domains shown, H4H: human IgG4 Fc with S108P hinge mutation) VH: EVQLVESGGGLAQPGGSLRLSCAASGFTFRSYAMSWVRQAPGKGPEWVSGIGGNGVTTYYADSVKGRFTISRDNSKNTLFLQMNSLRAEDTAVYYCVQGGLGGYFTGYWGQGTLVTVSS VL: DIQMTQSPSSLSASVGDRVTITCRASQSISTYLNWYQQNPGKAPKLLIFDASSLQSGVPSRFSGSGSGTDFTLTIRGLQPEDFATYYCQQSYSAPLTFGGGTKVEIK', 96.3),
  ('H4H12164P (antibody, human IgG4, V domains shown, H4H: human IgG4 Fc with S108P hinge mutation) VH: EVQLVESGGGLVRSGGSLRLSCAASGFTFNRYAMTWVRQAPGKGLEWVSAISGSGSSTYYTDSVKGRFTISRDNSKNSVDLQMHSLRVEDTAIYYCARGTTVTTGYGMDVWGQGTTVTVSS VL: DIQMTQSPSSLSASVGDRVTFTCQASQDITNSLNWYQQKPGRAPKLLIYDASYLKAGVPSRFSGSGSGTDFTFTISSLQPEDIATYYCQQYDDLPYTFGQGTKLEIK', 98.7),
  ('H4H11683N (antibody, human IgG4, V domains shown, tested with H4H prefix (human IgG4 Fc with S108P hinge mutation); variable regions follow the numerical identifier; also called H2M11683N) VH: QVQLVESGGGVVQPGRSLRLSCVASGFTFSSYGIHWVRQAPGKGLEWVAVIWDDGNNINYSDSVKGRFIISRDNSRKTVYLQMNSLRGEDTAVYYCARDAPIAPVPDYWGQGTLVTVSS VL: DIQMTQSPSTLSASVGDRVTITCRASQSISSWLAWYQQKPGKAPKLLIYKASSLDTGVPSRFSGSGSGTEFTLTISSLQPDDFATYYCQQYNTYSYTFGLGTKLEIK', 98.9);

Would you kindly share the measured Cyno AP % Max Inhibition, hemolysis assay, 5% serum for H4H12170P (antibody, human IgG4, V domains shown, H4H: human IgG4 Fc with S108P hinge mutation) VH: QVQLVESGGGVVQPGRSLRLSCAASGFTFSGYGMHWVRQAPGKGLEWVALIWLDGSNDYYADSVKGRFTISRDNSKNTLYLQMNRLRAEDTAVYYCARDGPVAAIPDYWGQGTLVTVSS VL: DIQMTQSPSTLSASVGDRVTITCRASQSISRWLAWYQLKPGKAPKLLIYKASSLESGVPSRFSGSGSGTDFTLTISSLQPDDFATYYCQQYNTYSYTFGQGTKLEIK ?
99.2
